- Test system: SK-MEL-28 melanoma
- experiment description: NCI tumour cell line growth inhibition, 48 h
value kind: TGI

Use these answered entries as a reference point.
>>> result("CCOC(=O)/C(Br)=C1\\OC(=O)c2ccccc2-c2ccccc21")
"> 100 µM"
>>> result("Nc1nc(Cl)cc(NCC2(CO)CCCCC2)n1")
"> 100 µM"
>>> result("O=[N+]([O-])c1cc(Br)cc2cc(Cl)cnc12")
"> 100 µM"

// for each compound in input: emit TGI
1. C/C(=N\Nc1ccccc1)c1sc(-c2nc(C)c(/C(C)=N/Nc3ccccc3)s2)nc1C
2. O=Cc1c2c(cc3c1CC1(C3)Cc3cc4c(c(C=O)c3C1)CCCC4)CCCC2
3. Cc1ccc(Nc2c3c(c(C#N)c4nc5ccccc5n24)CCCC3)cc1
4. Cc1cc(OCc2nc(N)nc(N)c2-c2ccc(Cl)c(Cl)c2)ccc1[N+](=O)[O-]
5. CC(NC(=O)Cc1ccc(OP(=O)(OCc2ccc([N+](=O)[O-])o2)N(C)CCCCCl)cc1)c1ccc(OCC2CCCCC2)c(C(N)=O)c1 (stereo not drawn)

1: > 85.8 µM; 2: > 100 µM; 3: 55.6 µM; 4: 40.8 µM; 5: 3.33 µM

###

Exercise: for every item that follows, state its recorded GI50.
- Test system: UO-31 renal
- experiment description: NCI tumour cell line growth inhibition, 48 h

Please review the entries below; each comes with its answer.
>>> result("O=C1c2c(O)cccc2C(C(=O)CCCCCC(=O)C2c3cccc(O)c3C(=O)c3c(O)cccc32)c2cccc(O)c21")
"7.85 µM"
>>> result("Oc1ccc(NC(=S)Nc2ccccc2)cc1")
"> 100 µM"
>>> result("CCN(C(=O)N1CCN(c2cc3c(cc2F)c(=O)c(C(=O)O)cn3C2CC2)CC1)c1nc(-c2ccccc2)cs1")
"2.31 µM"
>>> result("O=C([CH-]C(=O)c1ccccc1)c1ccccc1.[C-]#[O+].[C-]#[O+].[Ir]")
"45.2 µM"

Please go through the list and note GI50 for each compound.
1. Nc1nc(N)c2c(n1)NC(c1sc(Cl)nc1Cl)CC(c1ccccc1)=N2 (stereo not given)
2. Cc1cc(S(=O)(=O)/N=C(\N)Nc2cccc(O)c2)c(SCc2ccccc2)cc1Cl
3. CN(C)c1ccc(/C=C/C(=O)c2ccc(Nc3nc(Nc4ccc(F)cc4)nc(Nc4ccc(F)cc4)n3)cc2)cc1

["3.04 µM", "10.8 µM", "15.2 µM"]

Look up GI50 for the entries below, preserving their order.
1. C[C@@H]1CC[C@H]2[C@@H](C)C(O)O[C@@H]3O[C@]4(C)CC[C@@H]1[C@]32OO4 (stereo not given in full)
2. O=c1cc(-c2ccc(Cl)cc2)[nH]c2ccccc12
3. COc1ccc2[nH]c(Cl)c(/C=C3/C(=O)Nc4ccccc43)c2c1

1: 0.375 µM; 2: > 100 µM; 3: 0.878 µM

###

Could you please report measured TGI for the items listed next?
- Test system: CCRF-CEM leukemia
- experiment description: NCI tumour cell line growth inhibition, 48 h

Examples with their reported TGI follow.
>>> result("Cc1sc2c(c1C)C(=O)c1cccn1-2")
"> 100 µM"
>>> result("O=[N+]([O-])c1cc(C2(N3CCCCC3)CCCCC2)sc1Br")
"7.33 µM"
>>> result("CC(=O)C(N1CCCCC1)C(O)(C(F)(F)F)C(F)(F)F (centres undefined)")
"> 100 µM"
>>> result("CCO/C(O)=C(/C(=N)N1CCOCC1)C(=O)Nc1cccc(C(F)(F)F)c1")
"> 100 µM"

State recorded TGI for all listed molecules.
1. CC1(C)OB(c2ccc(N(CCOS(C)(=O)=O)CCOS(C)(=O)=O)cc2)OC1(C)C
2. CC(C)C[S+]1C2=C([O-])CC(C)(C)CC2=Nc2ccccc21 (centres undefined)
3. OC1(c2ccccc2)CC2CCC(C1)N2CCCC(O)(c1ccccc1)c1ccccc1 (centres undefined)
4. CCN(CC)CC1CCCCN1CC(=O)N1c2cc(Cl)ccc2NC(=O)CC1C (centres undefined)

1: > 39.6 µM; 2: > 100 µM; 3: 30.8 µM; 4: > 100 µM

Required: TGI, one value per molecule below.
1. CC(=O)NNc1nc(C)c(C(=O)NNC(=O)C(=O)Nc2ccc(Cl)c([N+](=O)[O-])c2)s1
2. Cc1cc2c(cc1Cl)SC(N(c1ccccc1Cl)S(=O)(=O)c1ccc(Br)s1)=NS2(=O)=O
3. c1ccc(CN2CCC(=NN3CCCCC3)CC2)cc1

["56.8 µM", "82.1 µM", "> 100 µM"]

###

- Test system: OVCAR-8 ovarian
- experiment description: NCI tumour cell line growth inhibition, 48 h
value kind: TGI

>>> result("N#C/C(=C\\c1ccc(O)c(O)c1)c1c(C#N)c(N)nn1-c1ccccc1")
"29.2 µM"
>>> result("CC(=N/NC(=S)N1CCCCCC1)/C(C)=N\\NC(=S)N1CCCCCC1")
"> 100 µM"

For every record below, what is its TGI?
1. CC(=O)C(N1CCCCC1)C(O)(C(F)(F)F)C(F)(F)F (stereo unspecified)
2. C/C(=N\Nc1ccccc1)c1sc(-c2nc(C)c(/C(C)=N/Nc3ccccc3)s2)nc1C
3. COc1ccc(-n2cc(-c3cc(OC)c(OC)c(OC)c3)nc2SCc2ccc(Cl)cc2)cc1OC
4. COc1ccc2[nH]c3cc4c(=O)c5cc(OC)ccc5[nH]c4cc3c(=O)c2c1
5. O=C([CH-]C(=O)c1ccccc1)c1ccccc1.[C-]#[O+].[C-]#[O+].[Ir]
6. CC1(CO)C(O)CCC2(C)C1CCC1CC3CC12CCC3(O)CO (stereo unspecified)
7. O=S(=O)(C1=CC(S(=O)(=O)c2ccccc2)COC1)c1ccccc1 (stereo unspecified)

1: > 100 µM; 2: > 100 µM; 3: > 100 µM; 4: > 100 µM; 5: > 100 µM; 6: > 100 µM; 7: > 100 µM

Each molecule below has a recorded value; state its TGI.
1. CN(C)c1ccc(/C=C/C(=O)c2cc(C(C)(C)C)c(O)c(C(C)(C)C)c2)cc1
2. O=C(Nc1ccc(OS(=O)(=O)c2ccc(F)cc2)cc1)C12CC3CC(CC(C3)C1)C2
3. Cc1ccc(S(=O)(=O)NC(=O)Nc2c(S(N)(=O)=O)cc(S(N)(=O)=O)c(Cl)c2Cl)cc1
4. CC(Oc1cc2oc(=O)cc(-c3ccccc3)c2cc1Cl)C(=O)O (stereo unspecified)
5. CCN(CC)CC1CCCCN1CC(=O)N1c2cc(Cl)ccc2NC(=O)CC1C (stereo unspecified)
6. CC(=O)N[C@H](C)[C@@H](O)[C@@H](C)[C@@H]1OC(=O)/C=C/C=C(C)\C=C\[C@]2(C)C[C@@H](NS(C)(=O)=O)C=C[C@@H]2/C=C(C)/C=C/[C@H]1C
7. CC(C)C[C@H](CC(=O)O)C(=O)N[C@@H](Cc1c[nH]c2ccccc12)C(=O)N[C@@H](C)c1ccccc1

> 100 µM
> 100 µM
> 100 µM
> 100 µM
> 100 µM
> 43.5 µM
> 25 µM

Batch of 6 molecules: report TGI for each.
1. [N-]=[N+]=CC(=O)C1(C(=O)C=[N+]=[N-])CC1
2. Nc1n[n+]([O-])c2cc([N+](=O)[O-])ccc2[n+]1[O-]
3. Cc1cc(N(CCC#N)S(=O)(=O)c2ccccc2)ccc1C=Nc1cccc(C(=O)O)c1
4. CCOC(=O)COc1cc(-c2ccccc2F)nc2cc3c(cc12)OCO3
5. c1ccc(-c2csc3c2-n2cccc2C3N2CCCC2)cc1 (stereo unspecified)
6. CN1CCN(CCCOc2cccc3nc(Nc4cc(Cl)cc(Cl)c4)ccc23)CC1

> 100 µM
20.5 µM
> 100 µM
> 100 µM
> 100 µM
3.48 µM

State the recorded TGI for every item in the following list.
1. CCOC(=O)NN(C(=O)OCC)c1ccc(N=Nc2ccc(OC)cc2)n1C
2. Nc1nc(=O)n(C2CC(O)C(CO)O2)cc1F (stereo unspecified)
3. CC(=O)c1ccc(N2C(=O)C3c4[nH]c5ccccc5c4C4CCC(C(C)(C)C)CC4C3C2=O)cc1 (stereo unspecified)
4. O=c1cc(-c2ccc(Cl)cc2)[nH]c2ccccc12

["> 100 µM", "> 100 µM", "54.7 µM", "> 100 µM"]

###

- System: SW-620 colon
- experiment description: NCI tumour cell line growth inhibition, 48 h
For each entry below, report its TGI value.
Answers are plain numbers, in µM.

Solved entries (count: 2):
>>> numeric_result("C/C(=C1/N=C(c2cc([N+](=O)[O-])ccc2Cl)N(c2ccc(Br)cc2)C1=O)c1ccc(N(CCC#N)CCC#N)cc1C")
25.5
>>> numeric_result("Cc1c(C)c2c(c(C)c1OC(=O)CCC(=O)[O-])CCC(C)(CCCCCCCCCCC[P+](c1ccccc1)(c1ccccc1)c1ccccc1)O2 (centres undefined)")
0.842

Using the record for `COc1ccc(C(c2ccccc2C(=O)O)c2ccc(OC)c3ccccc23)c2ccccc12` , state its measured TGI. 44.4

Hello, the source for this data is PubChem BioAssay (NCI), in case you need it.
